Experimental system: recombinant human Meningioma Expressed Antigen 5 (MGEA5), also referred to as O-GlcNAcase (OGA) (Homo sapiens, UniProt O60502)
Construct: Full length OGA enzyme was purchased at OnGene (cat #TP322411); purchased OnGene (so in the source)
Sequence (O60502 whole entry): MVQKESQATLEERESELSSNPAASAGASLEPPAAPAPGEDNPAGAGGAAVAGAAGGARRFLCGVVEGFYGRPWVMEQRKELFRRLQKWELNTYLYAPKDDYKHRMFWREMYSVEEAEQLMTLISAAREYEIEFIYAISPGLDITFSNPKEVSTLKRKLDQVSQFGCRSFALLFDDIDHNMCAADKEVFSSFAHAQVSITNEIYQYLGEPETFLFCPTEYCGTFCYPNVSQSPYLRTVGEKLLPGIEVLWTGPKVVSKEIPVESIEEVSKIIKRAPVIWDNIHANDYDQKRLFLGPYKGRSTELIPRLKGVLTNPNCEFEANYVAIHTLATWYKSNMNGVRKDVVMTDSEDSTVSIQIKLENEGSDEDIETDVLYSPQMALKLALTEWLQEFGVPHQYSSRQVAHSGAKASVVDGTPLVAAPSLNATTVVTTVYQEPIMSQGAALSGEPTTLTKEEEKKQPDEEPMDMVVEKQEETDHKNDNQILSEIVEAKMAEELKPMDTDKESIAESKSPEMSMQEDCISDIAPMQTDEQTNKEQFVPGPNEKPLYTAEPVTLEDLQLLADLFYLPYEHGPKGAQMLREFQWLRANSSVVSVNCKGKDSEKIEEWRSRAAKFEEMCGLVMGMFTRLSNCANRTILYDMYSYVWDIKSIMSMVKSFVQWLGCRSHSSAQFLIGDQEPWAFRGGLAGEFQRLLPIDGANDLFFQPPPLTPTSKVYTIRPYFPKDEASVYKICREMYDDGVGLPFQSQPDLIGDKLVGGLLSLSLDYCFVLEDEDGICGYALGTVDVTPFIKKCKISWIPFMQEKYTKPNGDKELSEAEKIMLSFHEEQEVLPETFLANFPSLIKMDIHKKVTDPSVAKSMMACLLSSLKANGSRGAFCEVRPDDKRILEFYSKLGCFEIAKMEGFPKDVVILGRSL
Test: OGA biochemical assay: inhibition of hydrolysis of fluorescein mono-ß-D-N-Acetyl-Glucosamine (FM-GlcNAc), fluorescence readout
Condition parameters: FM-GlcNAc substrate, read-out: Enzymatic Emax (%)
From the text: The assay is based on the inhibition of the hydrolysis of fluorescein mono-ß-D-N-Acetyl-Glucosamine (FM-GlcNAc) (Mariappa et al. 2015, Biochem J 470:255) by the recombinant human Meningioma Expressed Antigen 5 (MGEA5), also referred to as O-GlcNAcase (OGA). […] The fluorescence of the latter can be measured at excitation wavelength 485 nm and emission wavelength 538 nm. An increase in enzyme activity results in an increase in fluorescence signal. […]
Outcome measure: Emax (%)
I only need the number, in %, no unit after it.

CCC(F)(F)Cn1ccc2c(Nc3c(Cl)cccc3Cl)nccc21
106

Input: Using the record for N#CCCCn1ccc2c(Nc3c(Cl)cccc3Cl)nccc21 , report its Emax.
Output: 102

Input: Using the record for CCCCn1ccc2c(Nc3c(Cl)cccc3Cl)ncc(F)c21 , report its Emax.
Output: 100

Input: Using the record for Cc1ccnc(C)c1Nc1nccc2c1ccn2CCC1CC1(F)F (stereo not shown) , report its Emax.
Output: 99

Input: Using the record for CCCCn1ccc2c(Nc3c(C)ccc(C(=O)N4CCOCC4)c3C)nccc21 , report its Emax.
Output: 105

Input: Using the record for Cc1ccnc(C)c1Nc1nccc2c1ccn2CC(C)O (stereo not shown) , report its Emax.
Output: 100

Input: Using the record for Cc1cc(F)cc(C)c1Nc1nccc2c1ccn2CC(C)(F)F , report its Emax.
Output: 100

Input: Using the record for FC1(F)CC(Cn2ccc3c(Nc4c(Cl)cccc4Cl)nccc32)C1 , report its Emax.
Output: 102

Input: Using the record for Cc1ccnc(C(C)C)c1Nc1nccc2c1ccn2CC(F)(F)C1CC1 , report its Emax.
Output: 104

Input: Using the record for Clc1cccc(Cl)c1Nc1nccc2c1ccn2CCC1COC1 , report its Emax.
Output: 98
